# METHOD DESCRIPTION: Intrinsic 1'-OH-MDZ formation clearance, human jejunal mucosa/microsomes
# Type: in vitro ADME
# RUN CONDITIONS: jejunal microsomes; eight human jejunal preparations, Vmax/Km; read-out: Microsomal intrinsic clearance (1'-OH-MDZ formation), jejunum
QUANTITY KIND: microsomal CLint (µL/min/mg)
Quick reminder: number only, in µL/min/mg, skip the unit.

Memo: Cc1ncc2n1-c1ccc(Cl)cc1C(c1ccccc1F)=NC2 [midazolam] , reported microsomal CLint: 118
